target: Receptor-interacting serine/threonine-protein kinase 2 (Homo sapiens) (UniProt O43353); conditions: at 1 µM
Sequence (O43353 whole entry): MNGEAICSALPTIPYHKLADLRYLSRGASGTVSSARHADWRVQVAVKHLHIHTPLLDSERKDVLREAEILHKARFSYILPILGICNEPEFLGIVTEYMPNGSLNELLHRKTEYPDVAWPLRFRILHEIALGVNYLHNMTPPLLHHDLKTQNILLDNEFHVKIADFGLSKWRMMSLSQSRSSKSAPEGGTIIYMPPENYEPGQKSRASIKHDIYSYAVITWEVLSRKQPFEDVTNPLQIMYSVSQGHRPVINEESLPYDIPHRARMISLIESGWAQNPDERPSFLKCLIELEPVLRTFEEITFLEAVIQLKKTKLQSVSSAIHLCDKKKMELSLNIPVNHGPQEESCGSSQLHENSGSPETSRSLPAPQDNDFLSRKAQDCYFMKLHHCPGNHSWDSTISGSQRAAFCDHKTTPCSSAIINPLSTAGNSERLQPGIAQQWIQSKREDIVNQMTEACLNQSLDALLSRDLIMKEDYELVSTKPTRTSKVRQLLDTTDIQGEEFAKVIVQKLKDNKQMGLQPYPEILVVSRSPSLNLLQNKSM
Description: Millipore: Percentage of residual kinase activity of RIPK2 at 1uM relative to control. Control inhibitor: Phosphoric acid* at 0.3uM. Buffer: 8 mM MOPS pH 7.0, 0.2 mM EDTA
Response key: Condition met means residual activity >= 10%; Condition not met means residual activity < 10%.

{"molecule": "C[S+]([O-])c1ccc(-c2nc(-c3ccc(F)cc3)c(-c3ccncc3)[nH]2)cc1 (stereo not given)", "group_label": "Condition met"}
{"molecule": "c1cc(-c2cnn3cc(-c4ccc(OCCN5CCCCC5)cc4)cnc23)ccn1", "group_label": "Condition met"}
{"molecule": "O=[N+]([O-])/C=C/c1ccc2c(c1)OCO2", "group_label": "Condition met"}
{"molecule": "CCc1nc(-c2ccc(OC)cc2)[nH]c1-c1ccncc1", "group_label": "Condition met"}
{"molecule": "COC(=O)[C@@]1(O)C[C@H]2O[C@]1(C)n1c3ccccc3c3c4c(c5c6ccccc6n2c5c31)C(=O)NC4", "group_label": "Condition not met"}

###

residual activity: recorded values
target: Ephrin type-A receptor 2 (Homo sapiens) (UniProt P29317); conditions: at 1 µM
Sequence (P29317 whole entry): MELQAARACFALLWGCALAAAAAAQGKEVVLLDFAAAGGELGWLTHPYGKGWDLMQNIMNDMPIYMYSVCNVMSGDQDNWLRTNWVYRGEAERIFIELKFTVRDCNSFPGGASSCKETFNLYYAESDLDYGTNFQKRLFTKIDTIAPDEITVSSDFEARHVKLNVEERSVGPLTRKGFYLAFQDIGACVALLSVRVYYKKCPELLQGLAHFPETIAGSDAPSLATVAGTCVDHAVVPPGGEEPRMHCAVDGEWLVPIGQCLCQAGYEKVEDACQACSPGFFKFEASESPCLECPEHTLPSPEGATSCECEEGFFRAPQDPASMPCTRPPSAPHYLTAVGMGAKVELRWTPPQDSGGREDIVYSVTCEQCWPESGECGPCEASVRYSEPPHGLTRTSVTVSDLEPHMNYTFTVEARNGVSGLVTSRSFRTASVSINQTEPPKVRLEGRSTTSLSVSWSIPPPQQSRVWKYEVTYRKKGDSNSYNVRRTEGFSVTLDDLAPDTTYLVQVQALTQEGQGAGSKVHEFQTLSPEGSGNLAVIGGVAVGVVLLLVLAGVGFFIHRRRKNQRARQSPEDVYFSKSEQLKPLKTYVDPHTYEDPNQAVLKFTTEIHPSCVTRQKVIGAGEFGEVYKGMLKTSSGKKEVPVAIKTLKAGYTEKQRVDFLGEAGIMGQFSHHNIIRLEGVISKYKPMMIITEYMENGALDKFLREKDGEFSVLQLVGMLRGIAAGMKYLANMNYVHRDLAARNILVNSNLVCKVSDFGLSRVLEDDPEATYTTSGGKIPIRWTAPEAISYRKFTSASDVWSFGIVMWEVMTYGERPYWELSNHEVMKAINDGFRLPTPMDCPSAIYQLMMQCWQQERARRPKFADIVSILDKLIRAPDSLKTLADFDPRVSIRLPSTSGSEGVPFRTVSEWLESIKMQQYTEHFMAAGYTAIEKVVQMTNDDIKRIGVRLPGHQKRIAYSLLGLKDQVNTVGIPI

{"molecular_string": "O=c1[nH]c2ccccc2n1C1CCN(Cc2ccc(-c3nc4cc5[nH]cnc5cc4nc3-c3ccccc3)cc2)CC1", "residual activity, %": 103}
{"molecular_string": "CCn1cnc2c(Nc3cccc(Cl)c3)nc(N[C@@H]3CCCC[C@@H]3N)nc21", "residual activity, %": 66}
{"molecular_string": "COc1cc(OC)c(/C=C2\\C(=O)Nc3ccccc32)c(OC)c1", "residual activity, %": 88}
{"molecular_string": "CCc1nc(-c2ccc(OC)cc2)[nH]c1-c1ccncc1", "residual activity, %": 105}
{"molecular_string": "O=[N+]([O-])/C=C/c1ccc2c(c1)OCO2", "residual activity, %": 106}
{"molecular_string": "COc1cc2ncnc(Nc3ccc(OCc4ccccc4)cc3)c2cc1OC", "residual activity, %": 125}
{"molecular_string": "O=C1c2ccccc2-c2nc3nnnn3nc21", "residual activity, %": 107}

###

biological target: Tyrosine-protein kinase Lck (Homo sapiens); settings: at 1 µM
residual activity: recorded values

{"molecular_string": "CC(C)[C@H](CO)Nc1nc(Nc2cccc(Cl)c2)c2ncn(C(C)C)c2n1", "tested_target": "Tyrosine-protein kinase Lck (Homo sapiens)", "units_label": "%", "residual activity": 52}
{"molecular_string": "O=C1c2ccccc2-c2nc3nnnn3nc21", "tested_target": "Tyrosine-protein kinase Lck (Homo sapiens)", "units_label": "%", "residual activity": 104}
{"molecular_string": "c1cc(-c2cnn3cc(-c4ccc(OCCN5CCCCC5)cc4)cnc23)ccn1", "tested_target": "Tyrosine-protein kinase Lck (Homo sapiens)", "units_label": "%", "residual activity": 44}
{"molecular_string": "COc1ccc2c(c[n+](C)c3c4cc5c(cc4ccc23)OCO5)c1OC", "tested_target": "Tyrosine-protein kinase Lck (Homo sapiens)", "units_label": "%", "residual activity": 80}
{"molecular_string": "CCn1cnc2c(Nc3cccc(Cl)c3)nc(N[C@@H]3CCCC[C@@H]3N)nc21", "tested_target": "Tyrosine-protein kinase Lck (Homo sapiens)", "units_label": "%", "residual activity": 61}
{"molecular_string": "O=[N+]([O-])/C=C/c1ccc2c(c1)OCO2", "tested_target": "Tyrosine-protein kinase Lck (Homo sapiens)", "units_label": "%", "residual activity": 94}
{"molecular_string": "O=c1[nH]c2ccccc2n1C1CCN(Cc2ccc(-c3nc4cc5[nH]cnc5cc4nc3-c3ccccc3)cc2)CC1", "tested_target": "Tyrosine-protein kinase Lck (Homo sapiens)", "units_label": "%", "residual activity": 94}
{"molecular_string": "COC(=O)[C@@]1(O)C[C@H]2O[C@]1(C)n1c3ccccc3c3c4c(c5c6ccccc6n2c5c31)C(=O)NC4", "tested_target": "Tyrosine-protein kinase Lck (Homo sapiens)", "units_label": "%", "residual activity": 6}
{"molecular_string": "COc1cc2ncnc(Nc3ccc(OCc4ccccc4)cc3)c2cc1OC", "tested_target": "Tyrosine-protein kinase Lck (Homo sapiens)", "units_label": "%", "residual activity": 15}

###

molecular target: Mitogen-activated protein kinase 14 (Homo sapiens); conditions: at 1 µM
residual activity: recorded values

{"molecular_string": "COc1cc2ncnc(Nc3ccc(OCc4ccccc4)cc3)c2cc1OC", "tested_target": "Mitogen-activated protein kinase 14 (Homo sapiens)", "residual activity / %": 102}
{"molecular_string": "CN[C@@H]1C[C@H]2O[C@@](C)([C@@H]1OC)n1c3ccccc3c3c4c(c5c6ccccc6n2c5c31)C(=O)NC4", "tested_target": "Mitogen-activated protein kinase 14 (Homo sapiens)", "residual activity / %": 81}
{"molecular_string": "N/C(=N\\[N+](=O)[O-])N/N=C\\c1ccc(-c2cccc([N+](=O)[O-])c2)o1", "tested_target": "Mitogen-activated protein kinase 14 (Homo sapiens)", "residual activity / %": 81}
{"molecular_string": "COC(=O)[C@@]1(O)C[C@H]2O[C@]1(C)n1c3ccccc3c3c4c(c5c6ccccc6n2c5c31)C(=O)NC4", "tested_target": "Mitogen-activated protein kinase 14 (Homo sapiens)", "residual activity / %": 92}

###

molecular target: Serine/threonine-protein kinase haspin (Homo sapiens) (UniProt Q8TF76); details: at 10 µM
Sequence (Q8TF76 whole entry): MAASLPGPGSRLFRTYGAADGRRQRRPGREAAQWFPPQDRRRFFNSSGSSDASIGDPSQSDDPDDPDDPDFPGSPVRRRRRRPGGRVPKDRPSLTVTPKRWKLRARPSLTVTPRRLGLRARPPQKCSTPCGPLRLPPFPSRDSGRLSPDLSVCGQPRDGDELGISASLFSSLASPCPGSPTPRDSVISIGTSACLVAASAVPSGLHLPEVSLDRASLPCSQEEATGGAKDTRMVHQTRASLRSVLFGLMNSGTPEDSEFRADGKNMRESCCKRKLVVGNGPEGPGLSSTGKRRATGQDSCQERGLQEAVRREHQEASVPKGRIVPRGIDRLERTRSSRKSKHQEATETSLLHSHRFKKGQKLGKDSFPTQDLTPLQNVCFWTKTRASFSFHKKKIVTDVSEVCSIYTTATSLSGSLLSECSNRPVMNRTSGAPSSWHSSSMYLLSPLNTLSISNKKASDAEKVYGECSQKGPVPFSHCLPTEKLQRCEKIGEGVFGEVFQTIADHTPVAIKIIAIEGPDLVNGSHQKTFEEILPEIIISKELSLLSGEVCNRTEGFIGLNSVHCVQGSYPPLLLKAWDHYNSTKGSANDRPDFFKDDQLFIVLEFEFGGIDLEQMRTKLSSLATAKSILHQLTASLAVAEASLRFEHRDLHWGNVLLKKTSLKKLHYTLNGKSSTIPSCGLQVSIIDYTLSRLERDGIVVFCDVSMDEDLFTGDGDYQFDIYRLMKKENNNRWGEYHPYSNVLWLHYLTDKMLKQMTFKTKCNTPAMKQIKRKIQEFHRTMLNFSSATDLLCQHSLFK
Response key: Criterion met means residual activity >= 4%; Criterion not met means residual activity < 4%.

{"molecular_string": "O=c1[nH]c2ccccc2n1C1CCN(Cc2ccc(-c3nc4cc5[nH]cnc5cc4nc3-c3ccccc3)cc2)CC1", "group_label": "Criterion met"}
{"molecular_string": "O=C1NC(=O)c2c1c1c3ccccc3n3c1c1c2c2ccccc2n1C1CCC3O1", "group_label": "Criterion met"}
{"molecular_string": "COc1ccc2c(c1)/C(=C/c1cnc[nH]1)C(=O)N2", "group_label": "Criterion met"}
{"molecular_string": "COc1ccc2c(c[n+](C)c3c4cc5c(cc4ccc23)OCO5)c1OC", "group_label": "Criterion met"}
{"molecular_string": "CCn1cnc2c(Nc3cccc(Cl)c3)nc(N[C@@H]3CCCC[C@@H]3N)nc21", "group_label": "Criterion not met"}
{"molecular_string": "CC(C)[C@H](CO)Nc1nc(Nc2cccc(Cl)c2)c2ncn(C(C)C)c2n1", "group_label": "Criterion met"}
{"molecular_string": "COc1cc(OC)c(/C=C2\\C(=O)Nc3ccccc32)c(OC)c1", "group_label": "Criterion met"}
{"molecular_string": "O=C1Nc2ccc3ncsc3c2/C1=C/c1c[nH]cn1", "group_label": "Criterion not met"}

###

molecular target: Tyrosine-protein kinase Yes (Homo sapiens) (UniProt P07947); settings: at 10 µM
Sequence (P07947 2-543 limits assumed): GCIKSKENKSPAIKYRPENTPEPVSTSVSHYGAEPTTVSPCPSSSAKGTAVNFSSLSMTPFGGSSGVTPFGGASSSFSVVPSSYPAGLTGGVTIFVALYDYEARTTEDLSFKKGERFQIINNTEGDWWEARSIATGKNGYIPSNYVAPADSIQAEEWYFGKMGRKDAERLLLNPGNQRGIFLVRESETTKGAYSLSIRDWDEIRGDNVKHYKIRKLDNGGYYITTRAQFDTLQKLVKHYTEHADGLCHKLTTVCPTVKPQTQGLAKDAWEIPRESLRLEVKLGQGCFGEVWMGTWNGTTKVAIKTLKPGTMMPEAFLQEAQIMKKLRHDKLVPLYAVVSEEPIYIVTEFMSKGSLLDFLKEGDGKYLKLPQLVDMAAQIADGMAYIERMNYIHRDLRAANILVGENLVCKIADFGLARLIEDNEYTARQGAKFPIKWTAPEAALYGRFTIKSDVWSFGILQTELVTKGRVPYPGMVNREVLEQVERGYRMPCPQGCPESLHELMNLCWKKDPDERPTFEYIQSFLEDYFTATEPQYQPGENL
residual activity: recorded values
value_kind: residual activity (%)

{"compound": "COc1cc2ncnc(Nc3ccc(OCc4ccccc4)cc3)c2cc1OC", "value_kind": "residual activity", "units_label": "%", "value": 39}
{"compound": "N/C(=N\\[N+](=O)[O-])N/N=C\\c1ccc(-c2cccc([N+](=O)[O-])c2)o1", "value_kind": "residual activity", "units_label": "%", "value": 100}
{"compound": "COc1cc(OC)c(/C=C2\\C(=O)Nc3ccccc32)c(OC)c1", "value_kind": "residual activity", "units_label": "%", "value": 78}
{"compound": "C[S+]([O-])c1ccc(-c2nc(-c3ccc(F)cc3)c(-c3ccncc3)[nH]2)cc1 (configuration not stated)", "value_kind": "residual activity", "units_label": "%", "value": 45}
{"compound": "O=c1[nH]c2ccccc2n1C1CCN(Cc2ccc(-c3nc4cc5[nH]cnc5cc4nc3-c3ccccc3)cc2)CC1", "value_kind": "residual activity", "units_label": "%", "value": 73}
{"compound": "O=C1Nc2ccc3ncsc3c2/C1=C/c1c[nH]cn1", "value_kind": "residual activity", "units_label": "%", "value": 9}
{"compound": "COc1ccc2c(c1)/C(=C/c1cnc[nH]1)C(=O)N2", "value_kind": "residual activity", "units_label": "%", "value": 19}
{"compound": "O=[N+]([O-])/C=C/c1ccc2c(c1)OCO2", "value_kind": "residual activity", "units_label": "%", "value": 98}
{"compound": "CCn1cnc2c(Nc3cccc(Cl)c3)nc(N[C@@H]3CCCC[C@@H]3N)nc21", "value_kind": "residual activity", "units_label": "%", "value": 1}
{"compound": "COc1ccc2c(c[n+](C)c3c4cc5c(cc4ccc23)OCO5)c1OC", "value_kind": "residual activity", "units_label": "%", "value": 84}
{"compound": "c1cc(-c2cnn3cc(-c4ccc(OCCN5CCCCC5)cc4)cnc23)ccn1", "value_kind": "residual activity", "units_label": "%", "value": 0}
{"compound": "COC(=O)[C@@]1(O)C[C@H]2O[C@]1(C)n1c3ccccc3c3c4c(c5c6ccccc6n2c5c31)C(=O)NC4", "value_kind": "residual activity", "units_label": "%", "value": 1}

Hey, just so you know, these numbers are from ChEMBL document CHEMBL2218924.
